test: Short term HFD mouse model: plasma and liver exposure; assay type: in vivo, mice (C57BL/6J); conditions: HFD mice, three oral doses of 20 mg/kg, 4 h after last dose

- Molecule: "N#Cc1ccccc1-c1c(-c2cccc(-c3ccc(C(=O)O)cc3Cl)c2)n(S(=O)(=O)c2ccc(C(F)F)cc2)c2cnccc12 [11/49]"
  liver exposure 4 h: "C (1 μM to ≤10 μM)"
- Molecule: "O=C(O)c1ccc(-c2cccc(-c3c(-c4ccccc4C4COC4)c4cc(F)ccc4n3S(=O)(=O)c3ccc(C(F)F)cc3)c2)c(Cl)c1 [3/59]"
  liver exposure 4 h: "C (1 μM to ≤10 μM)"
- Molecule: "O=C(O)c1ccc(-c2cccc(-c3c(-c4ncccc4C(F)(F)F)c4cc(F)ccc4n3S(=O)(=O)c3ccc(C(F)F)cc3)c2)c(Cl)c1 [11/23]"
  liver exposure 4 h: "C (1 μM to ≤10 μM)"

###

Molecular target: full length (FL) LXRβ (Homo sapiens, UniProt P55055, DUP175-175)
Construct: the full length (FL) proteins of LXRα (amino acids 1-447); NP005684; NP009052; expressed in transfected cells; host or cells: HEK293
Sequence (P55055 with tags, fused parts or gaps DUP175-175): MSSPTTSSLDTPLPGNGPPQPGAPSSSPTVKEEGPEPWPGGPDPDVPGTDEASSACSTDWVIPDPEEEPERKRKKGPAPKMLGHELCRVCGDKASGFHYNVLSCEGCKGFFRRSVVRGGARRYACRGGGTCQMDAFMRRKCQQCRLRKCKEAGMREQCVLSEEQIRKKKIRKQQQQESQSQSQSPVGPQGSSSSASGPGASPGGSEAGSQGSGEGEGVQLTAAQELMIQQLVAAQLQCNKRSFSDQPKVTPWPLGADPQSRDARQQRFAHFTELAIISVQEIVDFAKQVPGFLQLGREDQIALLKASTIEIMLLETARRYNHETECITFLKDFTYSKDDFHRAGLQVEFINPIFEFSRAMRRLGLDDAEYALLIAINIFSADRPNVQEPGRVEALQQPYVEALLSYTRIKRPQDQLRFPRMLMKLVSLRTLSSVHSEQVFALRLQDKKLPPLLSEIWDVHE
Assay: LXR Gal4 reporter transient transfection assay (FL-M2H Gal4β)
Assay type: cell-based
Details: HEK293 cells; read-out: FL-M2H Gal4β potency
Assay Metric: pEC50
Entry type: numeric. Quantity: pEC50, the -log10 of concentration in molar units.

// pEC50 value for N#Cc1cccc(-c2c(-c3cccc(-c4ccc(C(=O)O)cc4Cl)c3)n(S(=O)(=O)c3ccc(C(F)F)cc3)c3ccc(F)cc23)c1 [C11/48, reference compound] : 7.49

pEC50 recorded for this compound, O=C(O)c1ccc(-c2cccc(-c3c(-c4ccccc4)c4cc(F)ccc4n3S(=O)(=O)c3ccc(C(F)F)cc3)c2)c(Cl)c1 [C11/39, reference compound] , is 7.85

Entry N#Cc1ccccc1-c1c(-c2cccc(-c3ccc(C(=O)O)cc3Cl)c2)n(S(=O)(=O)c2ccc(C(F)F)cc2)c2ccc(F)cc12 — recorded pEC50 = 8.77

###

target: full length (FL) LXRβ (Homo sapiens, UniProt P55055, DUP175-175); construct: the full length (FL) proteins of LXRα (amino acids 1-447); NP005684; NP009052; expressed in transfected cells; host or cells: HEK293; assay: LXR Gal4 reporter transient transfection assay (FL-M2H Gal4β); type: cell-based; conditions: HEK293 cells, full length LXRβ; read-out: FL-M2H Gal4β (EC50 range)
Assay Metric: EC50

Form field, EC50 with full length (FL) LXRβ (Homo sapiens, UniProt P55055, DUP175-175), item Cc1ccc(S(=O)(=O)n2c(-c3cccc(N4CC(C(=O)O)C4)c3)c(-c3sccc3C#N)c3cc(F)ccc32)cc1 : < 100 nM

Reported full length (FL) LXRβ (Homo sapiens, UniProt P55055, DUP175-175) EC50 for item CN(CCS(=O)(=O)O)C(=O)c1ccc(-c2cccc(-c3c(-c4c(C#N)cccc4C#N)c4cc(F)ccc4n3S(=O)(=O)c3ccc(C(F)F)cc3)c2)c(Cl)c1 was < 100 nM

Case N#Cc1ccccc1-c1c(-c2cccc(-c3ccc(C(=O)O)c(O)c3Cl)c2)n(S(=O)(=O)c2ccc(C(F)F)cc2)c2ccc(F)cc12 , full length (FL) LXRβ (Homo sapiens, UniProt P55055, DUP175-175), EC50 recorded as < 100 nM

Kindly note: full length (FL) LXRβ (Homo sapiens, UniProt P55055, DUP175-175), Cc1ccc(S(=O)(=O)n2c(-c3cccc(-c4ccc(C(N)=O)cc4)c3)c(-c3ccsc3C#N)c3cc(F)ccc32)cc1 , EC50 value reported: < 100 nM

full length (FL) LXRβ (Homo sapiens, UniProt P55055, DUP175-175) assay, compound Cc1ccc(S(=O)(=O)n2c(-c3cccc(-c4ccc(CN)cc4Cl)c3)c(-c3ccsc3C#N)c3cc(F)ccc32)cc1 , recorded EC50 = 100 to 1000 nM

GET /values?item= N#Cc1sccc1-c1c(-c2cccc(N3CC(C(=O)O)C3)c2)n(S(=O)(=O)c2ccc(C(F)F)cc2)c2ccc(F)cc12 &system= full length (FL) LXRβ (Homo sapiens, UniProt P55055, DUP175-175) returns EC50: < 100 nM

Note to self: EC50 of Cc1ccc(S(=O)(=O)n2c(-c3cccc(N4CC(C(=O)O)C4)c3)c(-c3ccsc3C=O)c3cc(F)ccc32)cc1 with full length (FL) LXRβ (Homo sapiens, UniProt P55055, DUP175-175) was 100 to 1000 nM

###

test: Short term HFD mouse model: plasma and liver exposure; assay type: in vivo, mice (C57BL/6J); details: HFD mice, three oral doses of 10 mg/kg, 4 h after last dose
Assay Metric: plasma exposure 4 h

Solved entries:
- Compound: "CS(=O)(=O)NC(=O)c1ccc(-c2cccc(-c3c(-c4c(C#N)cccc4C#N)c4cc(F)ccc4n3S(=O)(=O)c3ccc(C(F)F)cc3)c2)c(Cl)c1 [32/5]"
  Val: "D (D: <100 nM)"
- Compound: "N#Cc1cccc(C#N)c1-c1c(-c2cccc(-c3c(F)cc(C(=O)O)cc3F)c2)n(S(=O)(=O)c2ccc(C(F)F)cc2)c2ccc(F)cc12 [11/53]"
  Val: "D (D: <100 nM)"
- Compound: "N#Cc1cccc(C#N)c1-c1c(-c2cccc([C@H]3CC[C@H](C(=O)O)CC3)c2)n(S(=O)(=O)c2ccc(C(F)F)cc2)c2ccc(F)cc12 [11/62]"
  Val: "C (C: 100 nM to <300 nM)"
- Compound: "N#Cc1cccc(C#N)c1-c1c(-c2cccc(-c3ccc(C(=O)O)cc3F)c2)n(S(=O)(=O)c2ccc(C(F)F)cc2)c2ccc(F)cc12 [11/51]"
  Val: "D (D: <100 nM)"
- Compound: "N#Cc1cccc(C#N)c1-c1c(-c2cccc(-c3ccc(C(=O)NCC(=O)O)cc3Cl)c2)n(S(=O)(=O)c2ccc(C(F)F)cc2)c2ccc(F)cc12 [21/3]"
  Val: "D (D: <100 nM)"
- Compound: "N#Cc1cccc(C#N)c1-c1c(-c2cccc(-c3ccc(C(=O)O)cc3Cl)c2)n(S(=O)(=O)c2ccc(C(F)(F)F)nc2)c2ccc(F)cc12 [11/37]"
  Val: "D (D: <100 nM)"

// switching to the query compound
// plasma exposure 4 h value for CC(=O)NS(=O)(=O)c1ccc(-c2cccc(-c3c(-c4c(C#N)cccc4C#N)c4cc(F)ccc4n3S(=O)(=O)c3ccc(C(F)F)cc3)c2)c(Cl)c1 [8/8] : C (C: 100 nM to <300 nM)

###

molecular target: ligand-binding domain (LBD) of LXRβ (Homo sapiens, UniProt P55055, DUP175-175); construct: LXRβ (amino acids 156-461); expressed in transfected cells; host or cells: HEK293; assay: LXR Gal4 reporter transient transfection assay (LBD-M2H Gal4β); type: cell-based; settings: HEK293 cells, LXRβ LBD; read-out: LBD-M2H Gal4β (EC50 range)
Assay Metric: EC50

Notebook: Cc1ccc(S(=O)(=O)n2c(-c3ccsc3)c(-c3ccsc3C#N)c3ccccc32)cc1 [1/23] , EC50 read as < 0.1 µM

EC50 reported for this compound N#Cc1sccc1-c1c(-c2cccs2)n(S(=O)(=O)c2ccc(Cl)cc2)c2ccc(C(=O)O)cc12 [Example 23] : 0.1 to 1 µM

// EC50 lookup, compound = N#Cc1sccc1-c1c(-c2cccs2)n(S(=O)(=O)c2ccc(Cl)cc2)c2ccc(OCCCCC(=O)O)cc12 [15/2] , result: 0.1 to 1 µM

Consider N#Cc1sccc1-c1c(-c2cccs2)n(S(=O)(=O)c2ccc(Cl)cc2)c2cc(OCCCC(=O)O)ccc12 [15/4] . Its measured EC50 is < 0.1 µM

Field EC50 (entry N#Cc1sccc1-c1c(-c2cccc(N3CC(C(=O)O)C3)n2)n(S(=O)(=O)c2ccc(Cl)cc2)c2ccccc12 [30/6] ) reads 0.1 to 1 µM

Lab note: measured EC50 of N#Cc1sccc1-c1c(-c2cccs2)n(S(=O)(=O)c2ccc(Cl)cc2)c2cc(CCC(=O)O)c(O)cc12 [Example 17] was 1 to 10 µM

The value of EC50 measured for the compound CS(=O)(=O)c1ccccc1-c1c(-c2cccs2)n(S(=O)(=O)c2ccc(Cl)cc2)c2ccccc12 [20/5] turned out to be 0.1 to 1 µM

For reference, reported EC50 for Cc1ccc(S(=O)(=O)n2c(-c3cc(C4CC4C(=O)O)cs3)c(-c3ccsc3C#N)c3ccccc32)cc1 (stereo not drawn) [3/17] stands at < 0.1 µM

Reported EC50 for COc1ccc(S(=O)(=O)n2c(-c3ccccc3)c(-c3ccc4ncccc4c3C#N)c3ccccc32)cc1 [20/20] was 0.1 to 1 µM

EC50 for N#Cc1sccc1-c1c(-c2ccccc2)n(S(=O)(=O)c2ccc(Cl)cc2)c2ccccc12 [Example 26] is < 0.1 µM

So, N#Cc1cscc1-c1c(-c2cccs2)n(S(=O)(=O)c2ccc(Cl)cc2)c2ccccc12 [20/4] ? Its EC50 was < 0.1 µM

Recorded EC50 (compound Cc1ccc(S(=O)(=O)n2c(-c3cccc(C4CC4C(=O)O)c3)c(-c3ccc(F)cc3C#N)c3ccccc32)cc1 (stereo not drawn) [30/15] ): 0.1 to 1 µM

Just so you know, measured EC50 for N#Cc1sccc1-c1c(-c2cccs2)n(S(=O)(=O)c2ccc(Cl)cc2)c2ccc(OCCCC(=O)O)cc12 [15/1] came out at 0.1 to 1 µM

Notebook: N#Cc1c(OCC(=O)O)cccc1-c1c(-c2cccs2)n(S(=O)(=O)c2ccc(Cl)cc2)c2ccccc12 [21/2] , EC50 read as 1 to 10 µM

So for Cc1ccc(S(=O)(=O)n2c(-c3cccc(N4CC(C(=O)O)C4)c3)c(-c3ccsc3C#N)c3cc(Cl)ccc32)cc1 [3/44] , the logged EC50 turned out to be < 0.1 µM
